- Experimental Target: Human recombinant KHK-C (Homo sapiens (Human))
- Sequence (P50053 whole entry): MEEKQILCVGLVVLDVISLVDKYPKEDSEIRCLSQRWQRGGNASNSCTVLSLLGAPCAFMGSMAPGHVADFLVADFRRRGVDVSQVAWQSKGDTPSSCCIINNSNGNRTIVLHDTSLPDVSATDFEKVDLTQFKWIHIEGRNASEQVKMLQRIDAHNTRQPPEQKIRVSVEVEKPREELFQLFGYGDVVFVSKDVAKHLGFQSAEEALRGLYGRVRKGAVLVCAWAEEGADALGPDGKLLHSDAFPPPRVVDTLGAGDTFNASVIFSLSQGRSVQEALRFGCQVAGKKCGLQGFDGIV
- Test Details: KHK inhibition assay, recombinant isozyme (coupled pyruvate kinase/LDH, NADH absorbance 340 nm)
- Format: biochemical
- Run Parameters: recombinant isozyme 6 nM, fructose 2 mM, ATP 0.1 mM
Measured Endpoint: IC50 (nM)

Example entries and their recorded answers appear below.
C[C@H]1[C@H](O)CN1c1nc(-c2cnn(C3CN(C)C3)c2)c(C2CC2)c(C(F)(F)F)n1	25.4
C[C@H]1[C@H](O)CN1c1nc(-c2cnn(C3CN(C)C3)c2)c(F)c(C(F)(F)F)n1	4.09

[P] O=C(Cn1cc(-c2nc(N3CC[C@@H]3C(F)(F)F)nc(C(F)(F)F)c2Cl)cn1)N1CCNCC1
[Q] COc1c(-c2cnn(CC(=O)N3CCNCC3)c2)nc(N2CC[C@@H]2C(F)(F)F)nc1C(F)F
[R] C[C@H]1[C@H](O)CN1c1nc(-c2cnn(C3CN(C)C3)c2)c(Cl)c(C(F)(F)F)n1
[S] C[C@H]1CCN1c1nc(-c2cnn(CC(=O)N3CCNCC3)c2)c(F)c(C(F)F)n1
Thanks in advance: please rank these 4 entries by IC50, highest to lowest. Labels, requested order.
S, Q, P, R
(S: 65.8 nM, Q: 32.7 nM, P: 5.03 nM, R: 0.856 nM)

* * *

- Experimental Target: Human recombinant KHK-A (Homo sapiens (Human), UniProt P50053)
- Sequence (P50053 other isoform, or with tags, fused parts or gaps): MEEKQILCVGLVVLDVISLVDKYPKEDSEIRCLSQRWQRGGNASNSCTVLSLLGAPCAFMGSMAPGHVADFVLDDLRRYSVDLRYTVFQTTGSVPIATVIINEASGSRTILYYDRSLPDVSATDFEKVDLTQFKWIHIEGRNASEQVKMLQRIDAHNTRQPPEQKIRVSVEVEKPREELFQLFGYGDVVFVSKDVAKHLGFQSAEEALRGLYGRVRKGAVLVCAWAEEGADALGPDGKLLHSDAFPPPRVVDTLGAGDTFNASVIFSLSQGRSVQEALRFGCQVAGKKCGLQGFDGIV
- Test Details: KHK inhibition assay, recombinant isozyme (coupled pyruvate kinase/LDH, NADH absorbance 340 nm)
- Run Parameters: recombinant isozyme 6 nM, fructose 2 mM, ATP 0.1 mM
Measured Endpoint: IC50 (nM)

Example entries and their recorded answers appear below.
Cc1c(-c2cnn(C3CN(C)C3)c2)nc(N2C[C@@H](O)[C@@H]2C)nc1C(F)(F)F	4.1
C[C@H]1CCN1c1nc(-c2cnn(CC(=O)N3CCNCC3)c2)c(Cl)c(C(F)(F)F)n1	1.8
O=C(Cn1cc(-c2nc(N3CC[C@@H]3C(F)F)nc(C(F)(F)F)c2Cl)cn1)N1CCNCC1	6.5
Cc1c(-c2cnn(C3CN(C)C3)c2)nc(N2C[C@@H](O)[C@@H]2C)nc1C(F)F	2.05
Cc1c(-c2cnn(CC(=O)N3CCNCC3)c2)nc(N2CC[C@@H]2C(F)F)nc1C(F)F	13
Cc1c(-c2cnn(C3CNC3)c2)nc(N2C[C@@H](O)[C@@H]2C)nc1C(F)F	1.9
C[C@H]1[C@H](O)CN1c1nc(-c2cnn(C3CN(C)C3)c2)c(Cl)c(C(F)(F)F)n1	0.2
COc1c(-c2cnn(C3CN(C)C3)c2)nc(N2C[C@@H](O)[C@@H]2C)nc1C(F)(F)F	7.8

[I] CN1CC(n2cc(-c3cc(C(F)(F)F)nc(N4C[C@@H](O)[C@@H]4C(F)(F)F)n3)cn2)C1 (racemic)
[II] COc1c(-c2cnn(CC(=O)N3CCNCC3)c2)nc(N2CC[C@@H]2C(F)(F)F)nc1C(F)(F)F
[III] Cc1c(-c2cnn(CC(=O)N3CCNCC3)c2)nc(N2CC[C@@H]2C(F)(F)F)nc1C(F)F
Rank the items in ascending order with respect to IC50. Labels, requested order.
I, III, II

[A] CCc1c(-c2cnn(CC(=O)N3CCNCC3)c2)nc(N2CC[C@@H]2C)nc1C(F)F
[B] COc1c(-c2cnn(CC(=O)N3CCNCC3)c2)nc(N2CC[C@@H]2C)nc1C(F)(F)F
[C] C[C@H]1[C@H](O)CN1c1nc(-c2cnn(C3CN(C)C3)c2)cc(C(F)F)n1
Thanks in advance: please rank these 3 entries by IC50, highest to lowest. Labels, requested order.
B, C, A
(B: 69 nM, C: 22 nM, A: 13 nM)

[P] C[C@H]1CCN1c1nc(-c2cnn(CC(=O)N3CCNCC3)c2)c(F)c(C(F)(F)F)n1
[Q] Cc1c(-c2cnn(CC(=O)N3CCNCC3)c2)nc(N2CC[C@@H]2C)nc1C(F)(F)F
Please indicate which item has the smaller measured IC50: P versus Q # answer = label of selected item
Q
(Q: 4.6 nM, P: 12 nM)

[P] O=C(Cn1cc(-c2cc(C(F)(F)F)nc(N3CC[C@@H]3C(F)(F)F)n2)cn1)N1CCNCC1
[Q] Cc1c(-c2cnn(CC(=O)N3CCNCC3)c2)nc(N2CC[C@@H]2C)nc1C(F)F
[R] C[C@H]1CCN1c1nc(-c2cnn(CC(=O)N3CCNCC3)c2)cc(C(F)F)n1
[S] Cc1c(-c2cnn(CC(=O)N3CCNCC3)c2)nc(N2CC[C@@H]2C(F)(F)F)nc1C(F)(F)F
Rank the items in ascending order with respect to IC50. Labels, requested order.
S, P, Q, R

[a] COc1c(-c2cnn(C3CN(C)C3)c2)nc(N2C[C@@H](O)[C@@H]2C)nc1C(F)F
[b] Cc1c(-c2cnn(CC(=O)N3CCNCC3)c2)nc(N2CC[C@@H]2C(F)F)nc1C(F)(F)F
[c] CCc1c(-c2cnn(CC(=O)N3CCNCC3)c2)nc(N2CC[C@@H]2C)nc1C(F)(F)F
Thanks in advance: please rank these 3 entries by IC50, highest to lowest. Labels, requested order.
a, c, b
(a: 27 nM, c: 8.8 nM, b: 4.5 nM)

[I] CCc1c(-c2cnn(C3CN(C)C3)c2)nc(N2C[C@@H](O)[C@@H]2C)nc1C(F)(F)F
[II] O=C(Cn1cc(-c2cc(C(F)(F)F)nc(N3CC[C@@H]3C(F)F)n2)cn1)N1CCNCC1
Please indicate which item has the smaller measured IC50: I versus II # answer = label of selected item
I

Data origin, for the record: patent US20240409530A1
